Molecular target: OSBP-S381A (Oryctolagus cuniculus, UniProt P16258, S381A)
Sequence (P16258 1-809 S381A): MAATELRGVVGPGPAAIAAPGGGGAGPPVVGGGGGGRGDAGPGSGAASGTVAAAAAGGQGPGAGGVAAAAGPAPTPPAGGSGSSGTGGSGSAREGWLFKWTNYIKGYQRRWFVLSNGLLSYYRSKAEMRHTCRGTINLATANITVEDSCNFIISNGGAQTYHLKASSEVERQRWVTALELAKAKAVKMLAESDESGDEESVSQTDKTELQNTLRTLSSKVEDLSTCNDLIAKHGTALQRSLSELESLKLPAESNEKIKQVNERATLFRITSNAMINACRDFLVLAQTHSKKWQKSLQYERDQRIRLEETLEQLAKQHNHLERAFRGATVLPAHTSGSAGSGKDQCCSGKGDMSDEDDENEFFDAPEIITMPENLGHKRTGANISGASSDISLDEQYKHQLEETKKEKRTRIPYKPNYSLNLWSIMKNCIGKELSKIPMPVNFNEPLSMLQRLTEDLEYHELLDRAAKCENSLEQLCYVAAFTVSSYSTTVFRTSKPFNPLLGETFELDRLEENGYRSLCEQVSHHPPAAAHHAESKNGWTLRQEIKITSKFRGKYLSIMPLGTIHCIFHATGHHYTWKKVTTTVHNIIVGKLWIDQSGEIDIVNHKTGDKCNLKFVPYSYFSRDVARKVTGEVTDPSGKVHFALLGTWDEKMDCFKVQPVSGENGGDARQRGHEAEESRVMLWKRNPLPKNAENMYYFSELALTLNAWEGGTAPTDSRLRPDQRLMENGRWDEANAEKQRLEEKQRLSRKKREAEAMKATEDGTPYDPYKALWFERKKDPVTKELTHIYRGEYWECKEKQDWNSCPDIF
Experiment: Specific binding of [3H]25OH by purified OSBP-S381A
pKd: −log10 of the molar value.
measured property: pKd

{"columns": ["molecule", "quantitative readout"],
 "data": [
  ["C[C@H](CCCC(C)(C)O)[C@H]1CC[C@H]2[C@@H]3CC=C4C[C@@H](O)CC[C@]4(C)[C@H]3CC[C@]12C [25OH, 25-hydroxycholesterol]", 7.29]
]}

----------
target: OSBP-S3E (Oryctolagus cuniculus, UniProt P16258, S381E/S384E/S387E); test: Specific binding of [3H]25OH by purified OSBP-S3E
measured property: Kd (nM)

{"columns": ["molecule", "quantitative readout"],
 "data": [
  ["C[C@H](CCCC(C)(C)O)[C@H]1CC[C@H]2[C@@H]3CC=C4C[C@@H](O)CC[C@]4(C)[C@H]3CC[C@]12C [25OH, 25-hydroxycholesterol]", 58]
]}

----------
Target: OSBP-S5E (Oryctolagus cuniculus, UniProt P16258, S381E/S384E/S387E/S388E/S391E)
Sequence (P16258 1-809 S381E/S384E/S387E/S388E/S391E): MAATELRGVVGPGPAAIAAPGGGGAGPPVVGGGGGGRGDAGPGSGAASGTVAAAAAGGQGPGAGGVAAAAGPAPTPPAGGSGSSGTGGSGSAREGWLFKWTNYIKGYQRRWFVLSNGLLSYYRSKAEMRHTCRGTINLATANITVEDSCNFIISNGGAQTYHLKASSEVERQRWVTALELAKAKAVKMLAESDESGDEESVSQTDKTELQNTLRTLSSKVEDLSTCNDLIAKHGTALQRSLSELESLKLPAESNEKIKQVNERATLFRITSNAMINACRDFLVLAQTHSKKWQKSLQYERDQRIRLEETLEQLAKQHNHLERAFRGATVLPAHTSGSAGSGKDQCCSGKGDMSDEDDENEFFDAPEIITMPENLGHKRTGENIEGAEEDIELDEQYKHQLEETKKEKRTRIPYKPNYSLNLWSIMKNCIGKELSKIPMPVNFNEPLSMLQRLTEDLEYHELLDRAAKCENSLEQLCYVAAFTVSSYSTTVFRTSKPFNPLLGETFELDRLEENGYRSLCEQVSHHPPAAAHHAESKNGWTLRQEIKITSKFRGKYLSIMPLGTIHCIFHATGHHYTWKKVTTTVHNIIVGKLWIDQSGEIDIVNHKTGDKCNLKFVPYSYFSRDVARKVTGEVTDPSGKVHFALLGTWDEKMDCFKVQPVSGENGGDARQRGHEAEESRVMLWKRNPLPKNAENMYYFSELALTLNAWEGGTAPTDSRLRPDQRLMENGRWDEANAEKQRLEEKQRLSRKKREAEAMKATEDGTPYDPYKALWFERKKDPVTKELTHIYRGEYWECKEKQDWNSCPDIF
Assay: Specific binding of [3H]25OH by purified OSBP-S5E

{"columns": ["compound", "Kd"],
 "data": [
  ["C[C@H](CCCC(C)(C)O)[C@H]1CC[C@H]2[C@@H]3CC=C4C[C@@H](O)CC[C@]4(C)[C@H]3CC[C@]12C [25OH, 25-hydroxycholesterol]", "35 nM"]
]}

Taken from paper PMC3442410.
